- SYSTEM_TESTED: NEDD8-conjugating enzyme Ubc12 (Homo sapiens) + NEDD8-activating enzyme E1 regulatory subunit (Homo sapiens) (UniProt P61081+Q13564)
- Sequence (P61081 whole entry, looked up): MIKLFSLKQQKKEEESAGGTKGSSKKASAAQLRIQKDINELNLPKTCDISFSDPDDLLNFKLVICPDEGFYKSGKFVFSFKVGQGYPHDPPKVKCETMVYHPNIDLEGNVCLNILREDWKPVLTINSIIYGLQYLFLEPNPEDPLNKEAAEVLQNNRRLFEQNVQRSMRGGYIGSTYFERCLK
- Sequence (Q13564 whole entry, looked up): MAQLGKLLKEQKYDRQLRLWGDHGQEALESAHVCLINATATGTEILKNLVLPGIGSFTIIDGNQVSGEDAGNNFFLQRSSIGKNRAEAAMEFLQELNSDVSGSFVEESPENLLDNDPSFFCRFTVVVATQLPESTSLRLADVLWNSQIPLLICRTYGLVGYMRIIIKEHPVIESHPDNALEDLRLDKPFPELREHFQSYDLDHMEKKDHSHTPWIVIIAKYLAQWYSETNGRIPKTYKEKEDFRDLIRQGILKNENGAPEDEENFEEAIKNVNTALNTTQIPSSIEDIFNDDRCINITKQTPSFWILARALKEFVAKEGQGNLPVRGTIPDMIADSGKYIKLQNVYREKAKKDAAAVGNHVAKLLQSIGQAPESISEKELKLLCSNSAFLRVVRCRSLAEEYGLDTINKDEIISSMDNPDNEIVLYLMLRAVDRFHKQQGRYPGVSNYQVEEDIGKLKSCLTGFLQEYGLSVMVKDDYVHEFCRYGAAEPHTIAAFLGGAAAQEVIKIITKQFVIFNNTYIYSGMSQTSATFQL
- PROCEDURE_SUMMARY: inhibitors of CUL1 neddylation, potency, dose response, biochemical, TR-FRET (AID 652247)
- TEST_PARAMETERS: in vitro CUL1 neddylation
Calls of active or inactive are those of the source. The rule behind the calls is not given here.

>  <COMPOUND>
CN(C)c1ccc(/C=N/NC(=O)CCc2nc3ccccc3[nH]2)cc1

>  <IC50>
inactive

$$$$
>  <COMPOUND>
Cc1cc(C)cc(N(CC(=O)NC2CCCC2)C(=O)C2(C)CC(=O)N=C3C=CC=CN32)c1 (stereo not given)

>  <IC50>
inactive

$$$$
>  <COMPOUND>
Cc1cccn2c(=O)c(C=NCc3ccccc3)c(NCCO)nc12

>  <IC50>
inactive

$$$$
>  <COMPOUND>
CCOc1ccccc1NC(=O)CN1c2cccc3cccc(c23)S1(=O)=O

>  <IC50>
inactive

$$$$
>  <COMPOUND>
COc1ccc(-c2cc(C(=O)N3CCN(c4ccccc4O)CC3)c3ccccc3n2)cc1OC

>  <IC50>
inactive

$$$$
>  <COMPOUND>
Cc1c(C(C)NC(=O)c2cc(COc3cccc4cnccc34)on2)cnn1C (stereo not given)

>  <IC50>
inactive

$$$$
>  <COMPOUND>
O=C(Nc1cc(C(=O)Nc2ccccc2C(=O)O)cc(C(=O)Nc2ccccc2C(=O)O)c1)c1ccccc1

>  <IC50>
> 100 µM (inactive)

$$$$
>  <COMPOUND>
c1cc2c3c(cccc3c1)-c1cnccc1-2

>  <IC50>
inactive

$$$$
>  <COMPOUND>
Cn1ncc2cc3c(Nc4ccc(Cl)cc4)cccc3nc21

>  <IC50>
inactive

$$$$
>  <COMPOUND>
COCCNC(=O)COC(=O)c1cc(-c2ccc(OC)cc2)nc2ccccc12

>  <IC50>
inactive

$$$$

---

- SYSTEM_TESTED: NEDD8-conjugating enzyme Ubc12 (Homo sapiens) + NEDD8-activating enzyme E1 regulatory subunit (Homo sapiens) (UniProt P61081+Q13564)
- PROCEDURE_SUMMARY: inhibitors of CUL1 neddylation, potency, dose response, biochemical, TR-FRET (AID 652247)
- TEST_PARAMETERS: in vitro CUL1 neddylation
Activity calls are given as the source filed them. How the calls were made is not given here.
QUANTITY_MEASURED: IC50

>  <COMPOUND>
COCc1cc(C)nc2sc(C(=O)Nc3ccc(OC)cc3)c(N)c12

>  <REPORTED_VALUE>
> 100 µM (inactive)

$$$$
>  <COMPOUND>
O=C(CCCc1c[nH]c2ccccc12)N1CCN(c2ccc(N3CCOCC3)nn2)CC1

>  <REPORTED_VALUE>
inactive

$$$$
>  <COMPOUND>
c1cnc2cc(-c3ccsc3)ncc2c1

>  <REPORTED_VALUE>
inactive

$$$$
>  <COMPOUND>
C=CCNC(=S)N/N=C/c1ccc(N(CC)Cc2ccccc2)cc1

>  <REPORTED_VALUE>
inactive

$$$$
>  <COMPOUND>
COc1ccc2cc(C(=O)N/N=C/c3cc(OC)c(OC)c(OC)c3)[nH]c2c1

>  <REPORTED_VALUE>
inactive

$$$$
>  <COMPOUND>
Cc1ccc(C(C(=O)NCC2CCCO2)N(C(=O)c2snc(C(N)=O)c2N)c2ccc(F)cc2)o1 (stereo not given)

>  <REPORTED_VALUE>
> 100 µM (inactive)

$$$$
>  <COMPOUND>
COc1ccccc1/C=N/NC(=O)c1ccccc1NS(=O)(=O)c1ccc(C)cc1

>  <REPORTED_VALUE>
inactive

$$$$
>  <COMPOUND>
O=C(N/N=C/c1cccnc1)c1ccc(CN2c3cccc4cccc(c34)S2(=O)=O)cc1

>  <REPORTED_VALUE>
inactive

$$$$
>  <COMPOUND>
CC(C(=O)NCC1CCCO1)N(C(=O)c1snc(C(N)=O)c1N)c1cccc(F)c1 (stereo not given)

>  <REPORTED_VALUE>
inactive

$$$$
>  <COMPOUND>
COc1cc(F)ccc1-c1cc(C(=O)Nc2ccc(NC(C)=O)cc2)[nH]n1

>  <REPORTED_VALUE>
19.4 µM

$$$$
